These entries and their values trace back to PubChem BioAssay (NCI).

Assay: NCI Yeast Anticancer Drug Screen. Data for the rad50 strain (AID 155);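 further: 0% = growth of vehicle-only cultures of the same strain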
Details: S. cerevisiae rad50 strain growth inhibition; at 50.0 µM; hits give high values
Protocol: Growth inhibition of yeast strains with defined genetic alterations is measured as a screen for potential anti-cancer activity. Selected strains with alterations in DNA damage repair or cell cycle control were exposed to compounds and growth inhibition was measured relative to vehicle treated controls. The strain used in this assay is rad50
Compounds without any hit were thinned out: in the full panel of roughly 79,000, 15% have a hit.
Attribute measured: growth inhibition (%)
Give a bare numeral; the unit % is implied.

Dear colleague, please send me the reported growth inhibition for O=C1NC(=S)S/C1=C\c1ccc2c(c1)OCO2 when you can.
-22.1

Dear colleague, please send me the reported growth inhibition for O=C(c1ccccc1)c1ccccc1O when you can.
-16.6

Dear colleague, please send me the reported growth inhibition for COc1cc(/C=C/C(=N\NC(=S)NN)c2sc(NNC(C)=O)nc2C)ccc1O when you can.
22.5

Dear colleague, please send me the reported growth inhibition for NC(=O)c1cc[cH-]c1.[Fe+2].c1cc[cH-]c1 when you can.
-10.1

Dear colleague, please send me the reported growth inhibition for CCCCCC1CC[N-]CC1.CCCCCC1CC[N-]CC1.N#C[S-].N#C[S-].[Cu] when you can.
33.4

Dear colleague, please send me the reported growth inhibition for N#Cc1c(N2CCCC2)ncn(Cc2ccccc2)c1=S when you can.
-10.9

----------
assay: NCI Yeast Anticancer Drug Screen. Data for the bub3 strain (AID 167); settings: S. cerevisiae bub3 mutant strain, at 50.0 µM
Compounds without any hit were thinned out: in the full panel of roughly 79,000, 15% have a hit. Active and inactive are the calls of the source. No stated cut-off is given here; in the data, active means growth inhibition above about 70%; inactive means the rest.
Thanks in advance; please answer with one of these: yes (1) for active, no (0) for inactive

Outcome? Nc1nc2c(c(=O)[nH]1)CN(c1ccc(S(N)(=O)=O)cc1)CN2
no (0)

Outcome? N#Cc1sc2c(c1O)c(=O)n(-c1ccccc1)c(=S)n2-c1ccccc1
no (0)

Outcome? C[N+](C)(C)CC(O)CC#N (configuration not stated)
no (0)

Outcome? [Cl][Tb]([Cl])[Cl]
no (0)

Outcome? N#Cc1ccc(NC(=NCC(=O)O)Nc2ccc3ccccc3c2)cc1
no (0)

Outcome? CCOC(=O)CC[C@H](NC(=O)c1nc[nH]c1[N+](=O)[O-])C(=O)OCC
no (0)

Outcome? O=C(/C=C/c1ccccc1O)c1ccccc1
no (0)

Outcome? CCOC(=O)C(C#N)S(C)(=O)=O (configuration not stated)
no (0)

Outcome? CCC(C)OC(=O)/C(Br)=C1/OC(=O)c2ccccc2-c2ccccc21 (configuration not stated)
no (0)

Outcome? CC(C)C1CC(C)(C)C2CC3OC(C(C)C)CC(C)(C)C3CC2O1 (configuration not stated)
no (0)

Outcome? CC(C)N(C(=O)C12C3C4C5C3C1(C(=O)N(C(C)C)C(C)C)C5C42)C(C)C (configuration not stated)
no (0)

Outcome? COC(=O)Nc1c2c(nc3ccccc13)-c1ccccc1C(C)(C)C2OC (configuration not stated)
yes (1)

----------
assay: NCI Yeast Anticancer Drug Screen. Data for the mlh1 rad18 strain (AID 175); conditions: S. cerevisiae mlh1 rad18 strain growth inhibition; at 50.0 µM; hits give high values
Compounds without any hit were thinned out: in the full panel of roughly 79,000, 15% have a hit.
Attribute measured: growth inhibition (%)
Give a bare numeral; the unit % is implied.

Dear colleague, please send me the reported growth inhibition for CC(C)c1ccc(/C=C2\C=Nc3ccccc32)cc1 when you can.
20.6

Dear colleague, please send me the reported growth inhibition for CC(C)(C)OC(=O)C1=C2C=C(O)C=CC2(C)N(Cc2ccccc2)C1=N (stereo unspecified) when you can.
-50.2

Dear colleague, please send me the reported growth inhibition for COC(=O)C(N)C(C)C (stereo unspecified) when you can.
0.35

Dear colleague, please send me the reported growth inhibition for CCC(=O)O[C@@H]1C2C(OC(C)=O)C34COC(C)([C@@H]3C3C(C[C@]3(C)OC(C)=O)[C@@H](OC(=O)c3ccccc3)C4=O)[C@H](OC(C)=O)[C@@]2(OC(C)=O)C[C@@H]1C (stereo partly specified) when you can.
4.35

Dear colleague, please send me the reported growth inhibition for c1ccc(C2CCCN2)cc1 (stereo unspecified) when you can.
4

Dear colleague, please send me the reported growth inhibition for COc1ccc(/C=N/NC(=O)c2ccccc2OC)cc1 when you can.
36.1

Dear colleague, please send me the reported growth inhibition for CCOC(=O)Nc1ccc(S(=O)(=O)c2ccc(Nc3ccnc4cc(Cl)ccc34)cc2)cc1 when you can.
47.8

Dear colleague, please send me the reported growth inhibition for N#CC(C#N)=CNC(=S)c1ccncc1 when you can.
-24.2

Dear colleague, please send me the reported growth inhibition for Clc1nc(Cl)c2ncn(C3CCCO3)c2n1 (stereo unspecified) when you can.
4.95

Dear colleague, please send me the reported growth inhibition for CCCCN(CCCC)C(=Nc1ccccc1)N(CCCC)CCCC when you can.
-15.3

Dear colleague, please send me the reported growth inhibition for CCC(=O)C(C)C(=O)CCC(=O)Nc1cc(Cl)ccc1Cl (stereo unspecified) when you can.
19.6
